# Assayed System: APOL1 (Homo sapiens)
# Sequence (O14791 whole entry S342G/I384M, form open): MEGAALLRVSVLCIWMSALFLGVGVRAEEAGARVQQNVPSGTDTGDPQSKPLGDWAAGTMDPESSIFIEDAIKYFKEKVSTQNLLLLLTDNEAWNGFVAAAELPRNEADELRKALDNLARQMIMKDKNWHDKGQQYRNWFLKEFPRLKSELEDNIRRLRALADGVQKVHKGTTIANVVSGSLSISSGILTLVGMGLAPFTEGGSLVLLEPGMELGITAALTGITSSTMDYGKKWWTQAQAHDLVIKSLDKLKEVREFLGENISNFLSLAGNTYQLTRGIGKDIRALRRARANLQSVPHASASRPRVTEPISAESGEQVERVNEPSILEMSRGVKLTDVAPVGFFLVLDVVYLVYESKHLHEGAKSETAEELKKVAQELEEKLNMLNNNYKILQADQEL
# Procedure Details: MultiTox-Fluor Multiplex Cytotoxicity Assay in tet-inducible APOL1 T-REx-HEK293 cells (cell rescue, ratio of dead to live cells)
# Test Context: tet-inducible transgenic APOL1 T-REx-HEK293 cell lines, 50 ng/mL tet, 24 hours; read-out: IP50 (i.e., IC50 for cell proliferation)
pIC50: −log10 of the molar value.
Reported Property: pIC50

pIC50 recorded for this compound, `CCc1cc2c(s1)CCO[C@@]21CCN(C[C@H]2C[C@@H](NC(=O)C3CCN(C(C)=O)CC3)C2)[C@@H](C)C1` , is > 7.00

pIC50 recorded for this compound, `CCc1cc2c(s1)CCO[C@@]21CCN(CC2CN(C(=O)c3ccc(=O)oc3)C2)[C@@H](C)C1` , is 6.30 to 7.00

pIC50 recorded for this compound, `CCc1cc2c(s1)CCO[C@@]21CCN(Cc2cnn(CCS(C)(=O)=O)c2)[C@H](C)C1` , is 6.30 to 7.00

pIC50 recorded for this compound, `C[C@H]1C[C@@]2(CCN1Cc1cn(CCS(C)(=O)=O)nn1)OCCc1c2sc(C(F)(F)F)c1C(=O)NCC(F)F` , is 6.00 to 6.30

Measured values drawn from patent US20250171459A1 for this set.
